This collection of values is drawn from the RNAGym collection of RNA variant scans (doi:10.1002/anie.201605470).

B1: Osa-1-4 twister ribozyme (parent)
chain: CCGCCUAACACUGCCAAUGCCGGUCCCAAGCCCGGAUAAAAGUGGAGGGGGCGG

# Variants of: B1
# METHOD_DESCRIPTION: self-cleavage, relative activity (ratio to wild type); higher = more cleavage; co-transcriptional
MEASURED_PROPERTY: self-cleavage
Give bare numbers.

{"MUTANT_ID": "C21A G42C", "MEASURED_PROPERTY": "self-cleavage", "MEASURED_VALUE": 0.07}
{"MUTANT_ID": "C32U G50U", "MEASURED_PROPERTY": "self-cleavage", "MEASURED_VALUE": 0.11}
{"MUTANT_ID": "A40U G22A", "MEASURED_PROPERTY": "self-cleavage", "MEASURED_VALUE": 0.32}
{"MUTANT_ID": "C15U U37G", "MEASURED_PROPERTY": "self-cleavage", "MEASURED_VALUE": 0.76}
{"MUTANT_ID": "A17C A38C", "MEASURED_PROPERTY": "self-cleavage", "MEASURED_VALUE": 0.71}

Return reported self-cleavage values for all items listed beneath this line.
1. C26U G53A
2. A8C U43G
3. A36C C27A
4. A28C A40C
5. A40G G22U
6. G47U U24C
7. A28U U43A
8. A8G G30C

Response given:
0.22
0.08
0.07
0.08
0.16
0.03
0.28
0.07

Return reported self-cleavage values for all items listed beneath this line.
1. C27U G13U
2. C11G G30U
3. C20G C25G
4. C52U G42C
5. C32G G19A
6. A39C G42U
7. A17U C14G

Response given:
[0.01, 0.02, 0.06, 0.39, 0.12, 0.05, 0.25]

Return reported self-cleavage values for all items listed beneath this line.
1. C52A G22C
2. A36U G42U
3. C33U G47C
4. A38C C21A
5. A29C A36U
6. G35U G51U

Response given:
1. 0.07
2. 0.12
3. 0.07
4. 0.27
5. 0.04
6. 0.15

Return reported self-cleavage values for all items listed beneath this line.
1. G22C G35C
2. G51A G54U
3. A28U A39C

Response given:
1: 0.03; 2: 0.83; 3: 0.63
